pKi: −log10 of the molar value.
Consider the following pKi data for Tyrosine-protein kinase JAK3 (Homo sapiens, UniProt P52333), collected from several reports.

compound | meas value
FC(F)(F)CN(Cc1coc(-c2ncnc3[nH]ccc23)c1)CC1CC1 | > 7.00
CN(CC(F)(F)F)C(=O)c1ccc(-c2ncnc3[nH]ccc23)o1 | > 7.00
COCCN(C)c1cc(-n2cnc(Nc3ccccc3)n2)ccn1 | 6.00 to 8.00
Cc1ccc(CNc2cc(-c3c(N)nn4cccnc34)ncn2)o1 | 6.30 to 7.00
Nc1nn2cc(-c3ccc(CNC4CCNCC4)cc3)cnc2c1-c1ccccn1 | < 5.30
O=C1[C@H]2CCCC[C@@H]2C(=O)N1c1nc(-c2ncnc3[nH]ccc23)cs1 | 6.30 to 7.00
CCN(CC)CCNc1cc(-n2cnc(Nc3ccccc3)n2)ccn1 | < 6.00
O=C(NCC(F)(F)F)[C@H]1CCCN1c1ccnc(-c2c[nH]c(C(=O)N3CCCC3)c2)n1 | 5.00 to 6.00
O=C(NCC(F)(F)F)[C@H]1CCCN1c1ccnc(-c2ccc3ncccc3c2)n1 | 5.00 to 6.00
Oc1ccc(C2=Nc3ccccc3-c3ccnc4[nH]cc2c34)c(Cl)c1 | ≥ 6.60

Query block: Consider the compound COC[C@H](Nc1ccnc(-c2c[nH]c3ncncc23)n1)C(=O)NCC(F)(F)F and give its measured pKi.
Result block: 5.30 to 6.30

Query block: Same thing, different compound: COC[C@@H]1CCCN1c1nc(-c2c[nH]c3ncncc23)ncc1F
Result block: 5.30 to 6.30

Query block: Same thing, different compound: CC(C)C(Nc1nc(-c2c[nH]c(C(=O)N3CCCC3)c2)ncc1F)C(=O)NCC(F)(F)F (centres unmarked)
Result block: 5.00 to 6.00

Query block: Same thing, different compound: CC[C@H](Nc1nc(-c2c[nH]c3ncncc23)ncc1F)C(=O)NCC(F)(F)F
Result block: > 6.30
